Quick note: these are IC50 numbers for system: Cytochrome P450 2D6 (Homo sapiens)
Sequence (P10635 whole entry): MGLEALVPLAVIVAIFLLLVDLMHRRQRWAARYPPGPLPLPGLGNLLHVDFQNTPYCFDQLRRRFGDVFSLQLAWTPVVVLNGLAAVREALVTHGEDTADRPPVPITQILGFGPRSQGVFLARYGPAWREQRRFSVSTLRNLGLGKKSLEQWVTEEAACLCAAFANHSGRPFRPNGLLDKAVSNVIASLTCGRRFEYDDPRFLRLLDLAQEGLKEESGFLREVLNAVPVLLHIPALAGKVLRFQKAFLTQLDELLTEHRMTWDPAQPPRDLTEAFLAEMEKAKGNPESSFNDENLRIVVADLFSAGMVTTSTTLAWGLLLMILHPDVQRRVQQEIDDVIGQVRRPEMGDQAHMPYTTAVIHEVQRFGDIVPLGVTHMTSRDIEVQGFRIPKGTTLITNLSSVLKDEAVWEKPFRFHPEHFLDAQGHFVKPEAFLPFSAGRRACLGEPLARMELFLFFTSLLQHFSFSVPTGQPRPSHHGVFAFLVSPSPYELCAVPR

- smiles data: "COc1cc(F)c(-c2c(C)nn3c(C(F)(F)F)cc(C)nc23)cc1F"
  IC50: "> 30 µM"

The compound `COc1ccc(-c2c(C)nn3c(C(F)(F)F)cc(C)nc23)c(F)c1F` on Cytochrome P450 2D6 (Homo sapiens): IC50 was > 30 µM
